Value source: patent EP2650284A1

- target_or_system: mGluR5 receptors (Rattus norvegicus, UniProt P31424)
- Construct: Primary astrocyte cultures are prepared from cortices of newborn rats; endogenous in cells; host or cells: primary cortical astrocytes from Sprague-Dawley rat pups (2-4 d old)
- Sequence (P31424 21-1203): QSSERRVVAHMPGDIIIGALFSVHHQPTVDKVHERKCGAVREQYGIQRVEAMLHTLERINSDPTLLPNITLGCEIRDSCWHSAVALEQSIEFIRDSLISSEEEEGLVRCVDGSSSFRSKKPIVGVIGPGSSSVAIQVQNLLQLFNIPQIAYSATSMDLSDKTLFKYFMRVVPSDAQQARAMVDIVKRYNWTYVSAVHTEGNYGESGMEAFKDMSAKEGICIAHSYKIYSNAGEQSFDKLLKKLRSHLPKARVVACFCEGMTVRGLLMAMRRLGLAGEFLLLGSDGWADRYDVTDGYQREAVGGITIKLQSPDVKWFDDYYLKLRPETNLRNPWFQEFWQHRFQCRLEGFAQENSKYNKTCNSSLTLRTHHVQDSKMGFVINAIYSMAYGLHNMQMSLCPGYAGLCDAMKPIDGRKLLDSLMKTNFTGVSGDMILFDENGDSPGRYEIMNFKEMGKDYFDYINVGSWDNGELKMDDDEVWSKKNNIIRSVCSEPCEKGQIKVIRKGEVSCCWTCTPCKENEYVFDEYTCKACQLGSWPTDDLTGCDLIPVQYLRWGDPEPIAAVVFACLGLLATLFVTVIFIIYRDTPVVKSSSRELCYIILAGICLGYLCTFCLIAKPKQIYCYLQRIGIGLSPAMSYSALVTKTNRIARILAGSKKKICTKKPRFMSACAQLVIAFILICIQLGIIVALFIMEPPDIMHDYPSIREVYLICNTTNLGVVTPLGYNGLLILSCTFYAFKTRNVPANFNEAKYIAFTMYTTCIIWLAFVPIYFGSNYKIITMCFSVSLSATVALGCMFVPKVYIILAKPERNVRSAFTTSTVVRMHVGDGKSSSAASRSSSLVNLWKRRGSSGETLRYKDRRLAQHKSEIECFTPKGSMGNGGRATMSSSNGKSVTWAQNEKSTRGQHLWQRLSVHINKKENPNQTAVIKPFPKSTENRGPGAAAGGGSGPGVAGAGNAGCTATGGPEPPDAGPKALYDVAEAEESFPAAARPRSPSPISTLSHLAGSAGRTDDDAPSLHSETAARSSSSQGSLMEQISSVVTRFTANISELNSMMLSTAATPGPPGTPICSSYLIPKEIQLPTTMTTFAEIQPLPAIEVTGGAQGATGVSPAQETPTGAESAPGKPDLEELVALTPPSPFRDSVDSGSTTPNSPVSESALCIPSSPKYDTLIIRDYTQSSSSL
- test_protocol: Cytosolic calcium studies with astrocytes (FLIPR), functional assay of mGluR5 receptors
- Format: cell-based
- condition_summary: Table A3, given in brackets where Ki is n.d., read-out: r EC50
Task for the reader: assign each of the following molecules its reported EC50.

Ask: So what EC50 did O=C1OC2(CCCc3ncc(C#Cc4cccc(F)c4)cc32)CN1C1CC1 (racemic) get with mGluR5 receptors (Rattus norvegicus, UniProt P31424)?
Reply: 0.0505 µM

Ask: State its EC50 on mGluR5 receptors (Rattus norvegicus, UniProt P31424): CC(C)S(=O)(=O)N1CCc2ncc(C#Cc3ccccc3)cc2C1
Reply: 0.0511 µM

Ask: Return EC50 measured with mGluR5 receptors (Rattus norvegicus, UniProt P31424) given this molecule: COC(=O)N1CC[C@H]2CCc3cc(C#Cc4ccccc4)cnc3[C@H]21 (racemic)
Reply: 0.0355 µM
